Target: human GABAA α1β3γ2 receptor (Homo sapiens (Human), UniProt P14867+P18507)
Assay: Radioligand binding assay, competition for [3H]Flumazenil, γ2-containing GABAA subtypes
Conditions: Ki α1β3γ2 (nM)/Ki α2β2γ1 (nM), Table 1
Readout name: γ2/γ1 Selectivity Ratio
Could you respond with only the numeric value?

C[C@@H]1N=C(c2c(F)cccc2F)c2c(sc3c2COC[C@H](C)O3)-n2nc(C(=O)NCCO)nc21 : 119.7
C[C@@H]1N=C(c2c(F)cccc2F)c2c(sc3c2CCCCC3)-n2c(C3CC3)nnc21 : 51.0
Cc1nnc2n1-c1sc3c(c1C(c1c(F)cccc1F)=N[C@H]2C)CCCCO3 : 36.5

γ2/γ1 Selectivity Ratio reading for Cc1nnc2n1-c1sc3c(c1C(c1c(F)cccc1F)=N[C@H]2C)COC[C@H](C)O3 : 49.6

γ2/γ1 Selectivity Ratio reading for Cc1nnc2n1-c1sc3c(c1C(c1c(F)cccc1F)=N[C@H]2C)CC[C@@H](O)CC3 : 266.4

γ2/γ1 Selectivity Ratio reading for C[C@@H]1N=C(c2c(F)cccc2F)c2c(sc3c2COCCO3)-n2nc(C(=O)NCC3(O)CC3)nc21 : 157.4

γ2/γ1 Selectivity Ratio reading for C[C@@H]1N=C(c2c(F)cccc2F)c2c(sc3c2COCCC3)-n2cc(C(=O)NCCO)nc21 : 170.6

γ2/γ1 Selectivity Ratio reading for C[C@@H]1N=C(c2c(F)cccc2F)c2c(sc3c2COCCO3)-n2cc(C(=O)NCC(C)(C)O)nc21 : 142.9

====

Target: human GABAA α5β2γ1 receptor (Homo sapiens (Human), UniProt P31644+Q8N1C3)
Experiment: Radioligand binding assay, competition for [3H]RO7239181, γ1-containing GABAA subtypes
Listed molecules paired with reported pKi
Scale note: pKi = -log10(concentration in M).

Below, each entry is followed by its recorded pKi result.
C[C@@H]1N=C(c2c(F)cccc2F)c2c(sc3c2CCCCC3)-n2ccc(=O)nc21 : 8.65
[2H]C1([2H])OCc2c(sc3c2C(c2c(F)cccc2F)=N[C@@H](C)c2nc(C(=O)N4CCC4)nn2-3)OC1([2H])[2H] : 8.60
Cc1nnc2n1-c1sc3c(c1C(c1c(F)cccc1F)=N[C@H]2C)CCCC(F)(F)C3 : 7.89
C[C@@H]1N=C(c2c(F)cccc2F)c2c(sc3c2COC[C@H](C)O3)-n2nc(C(=O)N3CC(OC(C)(C)C)C3)nc21 : 8.21
Cc1nnc2n1-c1sc3c(c1C(c1c(F)cccc1F)=N[C@H]2C)COCCO3 : 8.63
C[C@@H]1N=C(c2c(F)cccc2F)c2c(sc3c2COCCO3)-n2nc(C(=O)NC[C@@](C)(O)C(F)(F)F)nc21 : 8.45
C[C@@H]1N=C(c2c(F)cccc2F)c2c(sc3c2COCCC3)-n2nc(C(=O)N[C@H]3C[C@@H](O)C3)nc21 : 8.19
C[C@@H]1N=C(c2c(F)cccc2F)c2c(sc3c2COCCO3)-n2nc(C(=O)N3CCC3)nc21 : 8.95
C[C@@H]1N=C(c2c(F)cccc2F)c2c(sc3c2COCCC3)-n2nc(C(=O)NC[C@](C)(O)C(F)(F)F)nc21 : 8.11
Cc1nnc2n1-c1sc3c(c1C(c1c(F)cccc1F)=N[C@H]2C)CCCC[C@H]3F (single isomer, unassigned) : 8.57

pKi reading for Cc1nnc2n1-c1sc3c(c1C(c1c(F)cccc1Cl)=N[C@H]2C)COCCO3 : 8.28

pKi reading for C[C@@H]1N=C(c2c(F)cccc2F)c2c(sc3c2COCCC3)-n2nc(C(=O)NC[C@@](C)(O)C(F)(F)F)nc21 : 8.24

pKi reading for C[C@@H]1N=C(c2c(F)cccc2F)c2c(sc3c2COCCC3)-n2nc(C(=O)NCC(C)(C)O)nc21 : 8.14

These data points were gathered from patent US20240294543A1.
